Data origin: patent US20230242662A1

- test.system: T1, cynoCD46-His (cynomolgus, UniProt A0A2K5WCL8 35-328)
- T1 construct: extracellular domain; Immobilised by amine coupling on the SPR chip; not shown: His tag
- T1 sequence: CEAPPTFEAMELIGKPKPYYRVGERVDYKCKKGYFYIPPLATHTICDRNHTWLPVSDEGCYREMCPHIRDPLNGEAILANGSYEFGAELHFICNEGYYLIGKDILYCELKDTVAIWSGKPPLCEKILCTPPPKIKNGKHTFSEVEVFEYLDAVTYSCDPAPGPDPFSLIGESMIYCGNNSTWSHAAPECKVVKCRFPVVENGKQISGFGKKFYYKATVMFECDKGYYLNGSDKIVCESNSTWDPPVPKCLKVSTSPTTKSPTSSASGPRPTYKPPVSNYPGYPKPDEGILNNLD
- assay.overview: SPR, cynoCD46-His immobilised, antibody as analyte, pH 7.4
Overview of reported kon across a group of binders:
Give just the numeric value; M⁻¹ s⁻¹ need not be written.

**Query** Any idea what kon was measured for BA-133-04-03 (antibody, V domains shown, also called CPE hit BA133-04-03) VH: EVQLVESGGGLVQPGGSLRLSCAASGGSVSSYDISWIRQSPSRGLEWLGVIWTDGGTNYNSAFMSRFTISRDDSKNTAYLQMNSLKTEDTAVYYCERVYDGYPWFAYWGQGTLVTVSS VL: AIQLTQSPSSLSASVGDRVTITCRASQGISNYLNWYLQKPGQSPQLLIYYTSSLFSGVPDRFSGSGSGTDFTLKISRVEAEDVGVYYCQQYIKLPWTFGQGTKVEIK ?
**Result** 1.21e+06

**Query** Any idea what kon was measured for BAP133-2-03-03-SL (antibody, V domains shown, the killing assays used the ADC form; also called BAP133-02-03-03-SL; CPE hit BAP133-2-03-03-SL) VH: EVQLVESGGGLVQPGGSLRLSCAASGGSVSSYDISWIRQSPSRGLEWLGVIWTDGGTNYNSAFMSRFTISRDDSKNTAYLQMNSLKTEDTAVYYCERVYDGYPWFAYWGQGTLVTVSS VL: AIQLTQSPSSLSASVGDRVTITCRASQGISNYLNWYLQKPGQSPQLLIYYTSSLHSGVPDRFSGSGSGTDFTLKISRVEAEDVGVYYCQQYIKLPWTFGQGTKVEIK ?
**Result** 442000

**Query** Any idea what kon was measured for Benchmark (BM) BA-133-00-01 (antibody, V domains shown, the killing assays used the ADC form; Conjugation site and payload are not described; also called BM (bench mark)) VH: QVQLQESGPGLVKPSETLSLTCTVSGGSVSSYDISWIRQPPGKGLEWIGVIWTDGGTNYNSAFMSRVTISVDTSKNQFSLKLSSVTAADTAVYYCARVYDGYPWFAYWGQGTLVTVSS VL: DIQMTQSPSSLSASVGDRVTITCRASQGISNYLNWYQQKPGKAPKLLIYYTSSLHSGVPSRFSGSGSGTDFTLTISSLQPEDFATYYCQQYIKLPWTFGGGTKLEIKR ?
**Result** 1.21e+06
